Values compiled from patent US12448399B2.

# experimental-system: KRas-G12D (Homo sapiens, UniProt P01116, G12D)
# Construct: insert the HiBiT tag onto the N-terminus of one or more of the endogenous KRas alleles; host or cells: AsPC-1 HiBiT-KRasG12D knock-in clone (one tagged allele, two untagged KRasG12D alleles)
# Sequence (P01116 1-188 isoform P01116-2 G12D): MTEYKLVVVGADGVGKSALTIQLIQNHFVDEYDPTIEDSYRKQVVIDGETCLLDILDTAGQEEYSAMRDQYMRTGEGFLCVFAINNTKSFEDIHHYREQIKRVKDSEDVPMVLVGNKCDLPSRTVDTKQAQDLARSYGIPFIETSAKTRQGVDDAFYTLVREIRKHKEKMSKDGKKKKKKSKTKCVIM
# protocol-details: HiBiT Degradation Assay (G12D), AsPC-1 HiBiT-KRasG12D cells, 24 hr
# Type: cell-based
# study-conditions: AsPC-1 cells
parameter-measured: DC50

compound="CCc1cccc2cc(O)cc(-c3ncc4c(N5CC6CCC(C5)N6)nc(OCCN5CCC(CN6CCN(CC7CCN(c8ccc9c(c8)C(=O)C(C8CCC(=O)NC8=O)C9=O)CC7)CC6)CC5)nc4c3F)c12 (stereo not shown)" experimental_system="KRas-G12D (Homo sapiens, UniProt P01116, G12D)" parameter_measured=DC50 data_value="100 to 5250 nM"
compound=CCc1cccc2cc(O)cc(-c3ncc4c(N5CC6CCC(C5)N6)nc(OCCN5CCN(CC6CCN(c7ccc(N8CCC(=O)NC8=O)c(F)c7)CC6)CC5)nc4c3F)c12 experimental_system="KRas-G12D (Homo sapiens, UniProt P01116, G12D)" parameter_measured=DC50 data_value="250 to 1000 nM"
compound="CCc1cccc2cc(O)cc(-c3ncc4c(N5CC6CCC(C5)N6)nc(OCCN5CCN(c6ccc7c(c6)CN(C6CCC(=O)NC6=O)C7=O)CC5)nc4c3F)c12 (stereo not shown)" experimental_system="KRas-G12D (Homo sapiens, UniProt P01116, G12D)" parameter_measured=DC50 data_value="250 to 1000 nM"
compound="C#Cc1c(F)ccc2cc(O)cc(-c3ncc4c(N5CC6CCC(C5)N6)nc(OC[C@@]56CCCN5[C@H](CN5CCN(CC7CCN(c8ccc9c(c8)CN(C8CCC(=O)NC8=O)C9=O)CC7)CC5)CC6)nc4c3F)c12 (stereo partly shown)" experimental_system="KRas-G12D (Homo sapiens, UniProt P01116, G12D)" parameter_measured=DC50 data_value="< 5100 nM"
compound="C#Cc1c(F)ccc2cc(O)cc(-c3ncc4c(N5CC6CCC(C5)N6)nc(OCCN5CCC(CN6CCC(CC7CCN(c8ccc9c(c8)CN(C8CCC(=O)NC8=O)C9=O)CC7)CC6)CC5)nc4c3F)c12 (stereo not shown)" experimental_system="KRas-G12D (Homo sapiens, UniProt P01116, G12D)" parameter_measured=DC50 data_value="< 5100 nM"
compound="C#Cc1c(F)ccc2cccc(-c3ncc4c(N5CC6CCC(C5)N6)nc(OCCN5CCC(CN6CC7(CCN(c8ccc9c(c8F)CN(C8CCC(=O)NC8=O)C9=O)CC7)C6)CC5)nc4c3F)c12 (stereo not shown)" experimental_system="KRas-G12D (Homo sapiens, UniProt P01116, G12D)" parameter_measured=DC50 data_value="> 1000 nM"
compound="C#Cc1c(F)ccc2cc(O)cc(-c3ncc4c(C5CC6CCC(C5)N6)nc(OCCN5CCC(CC6CCN(CC7CCN(c8ccc9c(c8)CN(C8CCC(=O)NC8=O)C9=O)CC7)CC6)CC5)nc4c3F)c12 (stereo not shown)" experimental_system="KRas-G12D (Homo sapiens, UniProt P01116, G12D)" parameter_measured=DC50 data_value="< 5100 nM"
compound="C#Cc1c(F)ccc2cc(O)cc(-c3ncc4c(N5CC6CCC(C5)N6)nc(OCCN5CCC(CC6CCN(CC7CCN(c8cccc9c8n(C)c(=O)n9C8CCC(=O)NC8=O)CC7)CC6)CC5)nc4c3F)c12 (stereo not shown)" experimental_system="KRas-G12D (Homo sapiens, UniProt P01116, G12D)" parameter_measured=DC50 data_value="< 5100 nM"
compound="C#Cc1c(F)ccc2cc(O)cc(-c3ncc4c(N5CC6CCC(C5)N6)nc(OC[C@@H]5C[C@@H](OC6CCN(CC7CCN(c8ccc9c(c8)CN(C8CCC(=O)NC8=O)C9=O)CC7)CC6)CN5C)nc4c3F)c12 (stereo partly shown)" experimental_system="KRas-G12D (Homo sapiens, UniProt P01116, G12D)" parameter_measured=DC50 data_value="< 5100 nM"
compound="C#Cc1c(F)ccc2cc(O)cc(-c3ncc4c(N5CC6CCC(C5)N6)nc(OCCN5CCC(CC6CCN(CC7CCN(c8ccc9c(c8)CN(C8(C)CCC(=O)NC8=O)C9=O)CC7)CC6)CC5)nc4c3F)c12 (stereo not shown)" experimental_system="KRas-G12D (Homo sapiens, UniProt P01116, G12D)" parameter_measured=DC50 data_value="> 1000 nM"
